Assay: Clearance in Sprague-Dawley rat at 10 mg/kg, ip measured for 24 hrs by LC-MS/MS analysis
Assay type: ADME, organism-based
Settings: in vivo
result-type: CL/F (mL/min/kg)
Please give a number only; it is taken to be in mL/min/kg.

QUERY: Entry `C[C@H](N)C(=O)N1Cc2ccc(-c3cccc(-c4ccc5c(c4)OCCO5)c3Cl)cc2C1.Cl` has what CL/F?
RESULT: 103

---

Test: Cytotoxicity against human BEAS-2B cells measured after 48 hrs by MTT assay
Format: toxicity, cell-based
result-type: IC50 at 48 h

QUERY: Entry `C[C@H](N)C(=O)N1Cc2ccc(-c3cccc(-c4ccc5c(c4)OCCO5)c3Cl)cc2C1.Cl` has what IC50 at 48 h?
RESULT: > 10 µM
